What phosphorylation enrichment was measured for each of the following?
Target: EPHB1 (UniProt P54762)
Sequence (P54762 whole entry, looked up): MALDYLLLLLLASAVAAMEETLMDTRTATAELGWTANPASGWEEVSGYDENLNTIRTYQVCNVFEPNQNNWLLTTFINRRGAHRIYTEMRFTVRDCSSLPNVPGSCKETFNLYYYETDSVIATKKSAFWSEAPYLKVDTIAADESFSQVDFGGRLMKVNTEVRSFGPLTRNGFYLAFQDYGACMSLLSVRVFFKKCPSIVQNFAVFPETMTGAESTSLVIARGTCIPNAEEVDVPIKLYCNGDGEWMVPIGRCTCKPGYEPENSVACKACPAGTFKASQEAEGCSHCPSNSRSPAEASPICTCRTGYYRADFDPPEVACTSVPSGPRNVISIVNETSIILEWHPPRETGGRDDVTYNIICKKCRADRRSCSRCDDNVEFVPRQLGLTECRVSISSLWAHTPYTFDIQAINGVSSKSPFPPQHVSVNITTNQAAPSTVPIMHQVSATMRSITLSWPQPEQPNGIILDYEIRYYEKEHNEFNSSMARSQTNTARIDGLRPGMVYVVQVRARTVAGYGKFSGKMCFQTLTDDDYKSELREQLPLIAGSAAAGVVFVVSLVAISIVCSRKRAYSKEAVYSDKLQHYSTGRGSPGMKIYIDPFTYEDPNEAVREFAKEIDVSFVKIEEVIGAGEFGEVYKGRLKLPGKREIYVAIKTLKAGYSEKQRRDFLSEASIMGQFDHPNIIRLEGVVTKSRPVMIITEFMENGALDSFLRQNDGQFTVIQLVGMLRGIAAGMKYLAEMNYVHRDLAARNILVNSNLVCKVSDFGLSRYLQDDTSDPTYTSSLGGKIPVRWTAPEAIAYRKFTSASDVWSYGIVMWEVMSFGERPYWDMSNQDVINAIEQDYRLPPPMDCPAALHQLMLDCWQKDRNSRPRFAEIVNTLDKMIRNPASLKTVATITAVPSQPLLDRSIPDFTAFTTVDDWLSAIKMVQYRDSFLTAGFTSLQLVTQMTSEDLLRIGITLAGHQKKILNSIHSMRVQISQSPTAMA
Assay: phosphorylation enrichment, bacterial display (enrichment ratio); higher = better substrate or ligand; peptides without Tyr show the background;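 note: 11-residue human phosphosite peptides and single-mutation variants displayed on the E. coli surface, counted by deep sequencing, each peptide's frequency after selection divided by its frequency in the unselected input library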;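 note: frequency after pTyr selection over input frequency; kinase dosed for 20-30% of maximal phosphorylation in three min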
Answers are plain numbers.

Field: example entries. Status: answers known.
{"columns": ["sequence code", "phosphorylation enrichment"],
 "data": [
  ["TNFRLYLRSLE [MTM1_Y71_YF]", 0.895],
  ["CTTIHFNFMCN [TP53_Y234_Y234F_YF]", 0.604]
]}

For each of the items listed, what is its phosphorylation enrichment?
1. HILFRYPKEFQ [IDS_Y234_P231L]
2. GSQERDFELVE [TSC2_Y407_Y407D]
3. RAIELCNDKEK [OTULIN_Y244_Y244C]
4. QEKKGYFEDRC [GLUL_Y336_R341C]
5. DFGSGYPNDPK [RNASEH2A_Y210_YF]
6. RLGVTYEQALA [MAP2_Y996_G991R]

output:
[0.822, 0.466, 0.406, 0.522, 0.516, 0.729]

Provide the reported phosphorylation enrichment of each entry below, same order.
1. VTPSEYLEIVR [TMEM130_Y412_E407V]
2. TKVVHYWKWIK [KLK2_Y249_R250W]

output:
1.21
0.494

* * *

I'd be grateful if you could share measured phosphorylation enrichment for these entries.
System: Fer (mouse)
Assay: phosphorylation enrichment, bacterial display (enrichment ratio); higher = better substrate or ligand; peptides without Tyr show the background
Give bare numbers.

Please review the following examples before continuing.
{"columns": ["sequence code", "experimental system", "readout label", "endpoint result"],
 "data": [
  ["RSAGKYDVYFI [MECP2_Y120_L124F]", "Fer (mouse)", "phosphorylation enrichment", 0.464],
  ["NEKNIYRVPLM [BMPR2_Y247]", "Fer (mouse)", "phosphorylation enrichment", 0.439],
  ["NLGQQYNSPQE [UMPS_Y432]", "Fer (mouse)", "phosphorylation enrichment", 0.498]
]}

Hi! Can you tell me phosphorylation enrichment for each of these sequences?
1. VFAANYFKLLG [ROR2_Y645_D644N_YF]
2. SSNLYYRCLTA [CNGA3_Y169_W171C]
3. FSMGCYEISLE [HMGCL_Y198_G203E_YF]
4. CENNRYGMGAS [PDHA1_Y227_T231A]
5. KMMGRYEMFAR [UPB1_Y362_T359M_YF]
6. ISKKIYDPIHD [CTNNA3_Y614_T616P]
7. FRKNTYNVKST [SYNE2_Y575_I574T_YF]

output:
[0.472, 0.571, 1.14, 0.365, 0.298, 0.446, 0.375]

For each listed entry, give its phosphorylation enrichment.
1. PKGIRYGQGAG [CSRP3_Y73_G72R]
2. FIATQYSLRPR [LBR_Y166_YF]
3. EVEPTYVVLYD [ERCC4_Y577_R576T]

output:
0.349
0.399
1.49

* * *

Molecular target: FGFR3 (UniProt P22607)
Sequence (P22607 whole entry, looked up): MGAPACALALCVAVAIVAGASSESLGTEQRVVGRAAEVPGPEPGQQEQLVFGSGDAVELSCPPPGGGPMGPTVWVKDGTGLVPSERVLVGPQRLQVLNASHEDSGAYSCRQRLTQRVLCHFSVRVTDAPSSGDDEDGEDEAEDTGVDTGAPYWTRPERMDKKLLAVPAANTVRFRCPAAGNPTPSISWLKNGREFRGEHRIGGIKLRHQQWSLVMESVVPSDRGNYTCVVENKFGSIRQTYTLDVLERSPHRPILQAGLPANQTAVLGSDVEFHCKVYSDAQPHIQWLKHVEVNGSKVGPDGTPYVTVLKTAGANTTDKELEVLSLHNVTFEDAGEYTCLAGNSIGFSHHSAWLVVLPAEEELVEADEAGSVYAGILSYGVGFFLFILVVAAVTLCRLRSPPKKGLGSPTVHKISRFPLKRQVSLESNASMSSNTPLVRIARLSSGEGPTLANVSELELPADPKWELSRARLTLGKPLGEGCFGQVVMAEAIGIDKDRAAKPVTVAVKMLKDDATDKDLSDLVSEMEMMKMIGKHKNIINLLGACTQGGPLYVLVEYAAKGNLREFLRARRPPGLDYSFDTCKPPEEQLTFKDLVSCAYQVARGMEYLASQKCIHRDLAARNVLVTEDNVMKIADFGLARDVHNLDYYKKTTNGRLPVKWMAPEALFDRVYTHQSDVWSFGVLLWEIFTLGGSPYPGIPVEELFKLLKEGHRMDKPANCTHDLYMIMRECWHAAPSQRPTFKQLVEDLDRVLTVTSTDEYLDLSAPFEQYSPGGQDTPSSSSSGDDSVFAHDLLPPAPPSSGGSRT
Assay: phosphorylation enrichment, bacterial display (enrichment ratio); higher = better substrate or ligand; peptides without Tyr show the background
Where phosphorylation enrichment equals or exceeds 0.7, the correct label is yes (1); where it does not, the label is no (0).

input: Could you tell me if the measured phosphorylation enrichment of FMMMRYSQNIR [SDAD1_Y656_V660I] reaches 0.7 or more?
output: yes (1)

input: State whether the measured phosphorylation enrichment reaches 0.7, counting equality as reaching it, for RLLVVYPSTQR [HBB_Y36_W38S]
output: yes (1)

input: Exam item: decide whether the reported phosphorylation enrichment for VQEDIYDEFVV [ALDH2_Y332_E337V] is at least 0.7.
output: yes (1)

input: Exam item: decide whether the reported phosphorylation enrichment for CTTIRYNYMCN [TP53_Y234_H233R] is at least 0.7.
output: no (0)

input: Identify whether the reported phosphorylation enrichment of the following sequence is 0.7 or greater: PMQLPYDSTWE [PDGFRB_Y589]
output: no (0)

* * *

I'd appreciate it if you could supply phosphorylation enrichment values for the items below.
Target: EPHB1 (UniProt P54762)
Test: phosphorylation enrichment, bacterial display (enrichment ratio); higher = better substrate or ligand; peptides without Tyr show the background
Numbers only.

Consider the reported phosphorylation enrichment for these sequences:
{"columns": ["sequence code", "phosphorylation enrichment"],
 "data": [
  ["GPRKAYELSQR [SETX_Y1297]", 0.343],
  ["SLALFYRKVYH [RBL1_Y792]", 0.667],
  ["SVVVPYDPPEV [TP53_Y220_E221D]", 0.543]
]}

I would be grateful if you could provide phosphorylation enrichment for each of the following entries.
1. LPVHFYSHVEH [PYGM_Y204_G205S]
2. RLLVVYTWTQR [HBB_Y36_P37T]
3. QTLTDYDTRFY [CSNK2A3_Y131_I133T]
4. FNSLLYQVPTS [CALCOCO2_Y358_P357L]
5. SNFRAYATEPQ [TNNI3_Y29_H34Q_YF]
6. FKDGQYWIRGQ [ACSF3_Y466_R471Q]
7. FAADFYKLLGN [ROR2_Y646_YF]

output:
[1.05, 0.656, 0.861, 12, 0.468, 0.522, 0.474]

* * *

Would you mind telling me the reported phosphorylation enrichment of each entry?
Molecular target: EPHB2 (UniProt P29323)
Sequence (P29323 whole entry, looked up): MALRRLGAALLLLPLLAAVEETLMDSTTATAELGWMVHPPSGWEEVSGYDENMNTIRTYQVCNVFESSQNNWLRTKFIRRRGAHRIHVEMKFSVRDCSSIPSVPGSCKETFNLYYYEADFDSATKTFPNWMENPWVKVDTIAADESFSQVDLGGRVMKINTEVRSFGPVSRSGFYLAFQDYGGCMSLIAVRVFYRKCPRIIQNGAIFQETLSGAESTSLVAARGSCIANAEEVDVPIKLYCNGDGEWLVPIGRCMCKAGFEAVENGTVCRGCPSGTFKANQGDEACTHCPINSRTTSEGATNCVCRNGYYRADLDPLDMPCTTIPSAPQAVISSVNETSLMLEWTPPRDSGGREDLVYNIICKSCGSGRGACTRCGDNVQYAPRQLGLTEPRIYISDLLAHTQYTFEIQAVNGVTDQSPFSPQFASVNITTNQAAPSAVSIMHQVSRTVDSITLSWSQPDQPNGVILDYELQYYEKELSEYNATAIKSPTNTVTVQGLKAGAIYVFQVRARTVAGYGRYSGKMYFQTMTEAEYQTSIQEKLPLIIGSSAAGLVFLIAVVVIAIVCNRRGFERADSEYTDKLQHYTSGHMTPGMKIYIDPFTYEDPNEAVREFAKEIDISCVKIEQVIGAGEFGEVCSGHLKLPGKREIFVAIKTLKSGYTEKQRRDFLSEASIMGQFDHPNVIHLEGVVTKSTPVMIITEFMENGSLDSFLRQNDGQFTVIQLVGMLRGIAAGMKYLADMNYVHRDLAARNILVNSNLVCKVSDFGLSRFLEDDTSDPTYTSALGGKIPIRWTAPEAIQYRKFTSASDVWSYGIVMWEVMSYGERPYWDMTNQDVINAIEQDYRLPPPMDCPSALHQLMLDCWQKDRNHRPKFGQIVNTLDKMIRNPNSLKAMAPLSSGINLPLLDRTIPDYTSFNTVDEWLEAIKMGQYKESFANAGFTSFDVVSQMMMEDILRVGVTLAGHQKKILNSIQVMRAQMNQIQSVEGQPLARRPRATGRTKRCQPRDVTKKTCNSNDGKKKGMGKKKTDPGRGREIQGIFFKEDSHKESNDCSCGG
Experiment: phosphorylation enrichment, bacterial display (enrichment ratio); higher = better substrate or ligand; peptides without Tyr show the background
Give bare numbers.

Below, 6 sequences whose answers are already recorded.
{"columns": ["sequence code", "phosphorylation enrichment"],
 "data": [
  ["LIFTNYEAGKD [GSTP1_Y112_YF]", 0.571],
  ["KANEFYPVVLI [ADAMTS18_Y765_YF]", 0.48],
  ["KLSCSYSHLSA [C4BPA_Y470_W473L]", 0.588],
  ["KCLAVYQAGAR [APOE_Y180_R176C]", 0.646],
  ["ADRARYSAFGG [RBM4_Y361]", 0.303],
  ["KMKGDYFCFLA [YWHAG_Y130_R132C_YF]", 1.56]
]}

Here is another sequence to look at.
input: // query phosphorylation enrichment value for entry DHLASYLDKVR [KRT10_Y160_R156H]
output: 0.477

* * *

Please respond with reported phosphorylation enrichment for every item in the list.
Tested on: Fer (mouse)
Experiment: phosphorylation enrichment, bacterial display (enrichment ratio); higher = better substrate or ligand; peptides without Tyr show the background
One number for each entry.

{"columns": ["sequence code", "phosphorylation enrichment"],
 "data": [
  ["NKVKFYIPYMN [NCR1_Y84_D87Y]", 0.469],
  ["VVKLTYNENDN [CAMKK2_Y183_A182T]", 0.577]
]}

// for each sequence in input: emit phosphorylation enrichment
1. TKVVHYWKWIK [KLK2_Y249_R250W]
2. TAALWYIFLHT [ENG_Y612_S615L_YF]
3. YSPYDYQPCLA [TNS1_Y798]
4. TIMTDYNPNFC [ALK_Y1092_YF]

output:
1. 0.378
2. 0.577
3. 3.46
4. 0.373

Go through the list and state phosphorylation enrichment for each entry.
1. FSKTQYNQVPR [CXADR_Y318_S323R_YF]
2. LIFVSYDDWDY [GRIN2A_Y281_S278F]
3. LIFTNYEAGKD [GSTP1_Y112_YF]
4. REETTYLPLTS [ICAM3_Y527_S525T]
5. KQELVYTNKKL [OPTN_Y356]
6. TLMNAYSSCSH [KIF11_Y231_R234C]

output:
1. 0.367
2. 4.89
3. 0.453
4. 0.608
5. 0.571
6. 0.599

input: For Fer (mouse), provide phosphorylation enrichment of KILGTYYETGS [PAX2_Y72_R71T] please.
output: 0.466

* * *

Target: EPHB2 (UniProt P29323)
Assay: phosphorylation enrichment, bacterial display (enrichment ratio); higher = better substrate or ligand; peptides without Tyr show the background
What phosphorylation enrichment was measured for each of the following?
One number for each entry.

Some sequences with known phosphorylation enrichment results, for comparison:
{"columns": ["sequence code", "experimental system", "readout label", "endpoint result"],
 "data": [
  ["TLQRMYGCDVG [HLA-B_Y123_S121R]", "EPHB2 (UniProt P29323)", "phosphorylation enrichment", 0.665],
  ["HHIDFYKKTTN [FGFR1_Y654_YF]", "EPHB2 (UniProt P29323)", "phosphorylation enrichment", 0.418],
  ["AIMSFYAALID [RYR1_Y2426]", "EPHB2 (UniProt P29323)", "phosphorylation enrichment", 0.667],
  ["MKDLTYASLCF [ALOX5_Y446]", "EPHB2 (UniProt P29323)", "phosphorylation enrichment", 2.07],
  ["IRTIDYRFTVW [IDS_Y497_YF]", "EPHB2 (UniProt P29323)", "phosphorylation enrichment", 0.614]
]}

Please supply phosphorylation enrichment for each of the following items, keeping them in order.
1. PQGVRYTYTID [DCX_Y103_I104T]
2. CTTIHYNDMCN [TP53_Y234_Y236D]
3. PLSGEYFTLQI [TP53_Y327_D324S]
4. EVEPTYVVLYD [ERCC4_Y577_R576T]
5. FSKTQYNQVPR [CXADR_Y318_S323R_YF]

output:
0.495
0.528
1.2
13.7
0.361
